Target: NPC1-like intracellular cholesterol transporter 1 (Homo sapiens) (UniProt Q9UHC9)
Sequence (whole entry): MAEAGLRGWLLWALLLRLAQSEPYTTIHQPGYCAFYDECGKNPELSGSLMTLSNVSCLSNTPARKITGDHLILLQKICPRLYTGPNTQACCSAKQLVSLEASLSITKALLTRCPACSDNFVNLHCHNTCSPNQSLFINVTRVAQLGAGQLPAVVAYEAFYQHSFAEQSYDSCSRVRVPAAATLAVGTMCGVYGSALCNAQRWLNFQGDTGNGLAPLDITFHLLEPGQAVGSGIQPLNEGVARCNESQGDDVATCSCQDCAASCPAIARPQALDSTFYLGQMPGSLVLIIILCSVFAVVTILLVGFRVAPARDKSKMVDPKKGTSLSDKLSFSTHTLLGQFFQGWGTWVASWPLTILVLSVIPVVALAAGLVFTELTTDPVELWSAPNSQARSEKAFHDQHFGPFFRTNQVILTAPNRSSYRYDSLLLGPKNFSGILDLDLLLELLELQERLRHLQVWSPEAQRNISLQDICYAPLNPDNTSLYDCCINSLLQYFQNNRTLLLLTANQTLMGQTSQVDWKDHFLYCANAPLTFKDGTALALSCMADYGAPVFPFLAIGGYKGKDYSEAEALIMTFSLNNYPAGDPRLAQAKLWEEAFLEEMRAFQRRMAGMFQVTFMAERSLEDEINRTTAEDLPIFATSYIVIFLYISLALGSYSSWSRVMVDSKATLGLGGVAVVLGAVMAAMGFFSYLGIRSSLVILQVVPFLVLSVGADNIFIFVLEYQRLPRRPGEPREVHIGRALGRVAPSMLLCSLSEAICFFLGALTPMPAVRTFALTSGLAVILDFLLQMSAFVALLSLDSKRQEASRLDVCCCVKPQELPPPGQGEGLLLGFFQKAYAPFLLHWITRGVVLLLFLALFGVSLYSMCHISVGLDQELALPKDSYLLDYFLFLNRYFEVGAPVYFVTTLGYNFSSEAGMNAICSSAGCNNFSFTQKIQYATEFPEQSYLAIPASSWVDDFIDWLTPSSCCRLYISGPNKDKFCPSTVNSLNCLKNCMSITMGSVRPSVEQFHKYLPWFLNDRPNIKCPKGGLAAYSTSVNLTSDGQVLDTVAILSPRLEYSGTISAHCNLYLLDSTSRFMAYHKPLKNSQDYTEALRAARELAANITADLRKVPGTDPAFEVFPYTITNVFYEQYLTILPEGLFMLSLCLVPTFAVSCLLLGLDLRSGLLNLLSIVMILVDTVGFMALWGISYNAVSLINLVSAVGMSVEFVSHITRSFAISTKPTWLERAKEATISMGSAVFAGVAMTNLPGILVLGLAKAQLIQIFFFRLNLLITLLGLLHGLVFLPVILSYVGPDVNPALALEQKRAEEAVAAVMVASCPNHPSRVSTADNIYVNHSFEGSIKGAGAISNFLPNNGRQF
Assay: Binding affinity to human GFP-tagged NPC1L1 L1072T/L1168I mutant expressed in HEK293 cells assessed as localization to plasma membrane at 30 uM after 24 hrs by fluorescence microscopic analysis
Type: cell-based
OBSERVABLE: Activity (%)

| TEST_SMILES | MEASURED_ON | OBSERVABLE | READOUT_VALUE |
| --- | --- | --- | --- |
| CCN(C(=O)c1ccc2c(c1)c1c(c(=O)n2C)CCCCC1)C1CC1 | NPC1-like intracellular cholesterol transporter 1 (Homo sapiens) (UniProt Q9UHC9) | Activity | 0 |
| CCCCn1c(=O)c2ccccc2c2cc(C(=O)NC3CCCCC3)ccc21 | NPC1-like intracellular cholesterol transporter 1 (Homo sapiens) (UniProt Q9UHC9) | Activity | 11 |

A = CCCCn1c(=O)c2ccccc2c2cc(C(=O)N(CCC)CCC)ccc21
B = CCN(CC)C(=O)c1ccc2c(c1)c1ccccc1c(=O)n2CC(=O)N(C)C
Thinking about recorded Activity values, which is higher, A or B ? Selection: enter the item's label.
A
